experimental-target: human GPR4 (Homo sapiens)
protocol-summary: Human GPR4 binding assay ([3H]4(example 39) radioligand, membranes of 300.19 cells)
Design: c-myc (N); expressed in transfected cells
pIC50: −log10 of the molar value. Where a name gives a salt, the structure may show the parent alone.
property: pIC50

compound="CCc1nn2c(C)cc(C)nc2c1Cc1ccc(/C=C/C(=O)N2CCNCC2)cc1 [Example 18, hydrochloride]" property=pIC50 data_value=7.09

* * *

experimental-target: human GPR4 (Homo sapiens, UniProt P46093)
Sequence (P46093 whole entry): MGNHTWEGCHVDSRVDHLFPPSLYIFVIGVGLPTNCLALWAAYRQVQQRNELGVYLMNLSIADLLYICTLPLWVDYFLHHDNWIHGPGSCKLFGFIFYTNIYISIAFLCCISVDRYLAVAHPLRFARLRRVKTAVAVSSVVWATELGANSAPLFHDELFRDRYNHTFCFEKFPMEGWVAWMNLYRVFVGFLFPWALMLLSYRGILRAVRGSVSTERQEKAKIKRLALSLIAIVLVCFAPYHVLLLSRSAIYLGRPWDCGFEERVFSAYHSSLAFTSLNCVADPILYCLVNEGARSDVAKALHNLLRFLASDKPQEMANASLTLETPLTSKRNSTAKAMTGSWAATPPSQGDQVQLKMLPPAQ
protocol-summary: Human GPR4 binding assay with additional human serum albumin (4% HSA)
Parameters: c-myc (N); expressed in transfected cells
experimental-conditions: binding assay with additional 4% human serum albumin
Structures can show the parent of a compound that is named as a salt.
property: IC50 (nM)

compound="CCc1nn2c(C)cc(C)nc2c1Cc1ccc(/C=C/C(=O)N2CCNCC2)cc1 [Example 18, hydrochloride]" data_value=67

Data origin, for the record: patent US20150216867A1
